Molecular target: T1, Macaca fascicularis (mf) RET.mmh (Macaca fascicularis)
T1 construct: also called monkey RET
T1 chain: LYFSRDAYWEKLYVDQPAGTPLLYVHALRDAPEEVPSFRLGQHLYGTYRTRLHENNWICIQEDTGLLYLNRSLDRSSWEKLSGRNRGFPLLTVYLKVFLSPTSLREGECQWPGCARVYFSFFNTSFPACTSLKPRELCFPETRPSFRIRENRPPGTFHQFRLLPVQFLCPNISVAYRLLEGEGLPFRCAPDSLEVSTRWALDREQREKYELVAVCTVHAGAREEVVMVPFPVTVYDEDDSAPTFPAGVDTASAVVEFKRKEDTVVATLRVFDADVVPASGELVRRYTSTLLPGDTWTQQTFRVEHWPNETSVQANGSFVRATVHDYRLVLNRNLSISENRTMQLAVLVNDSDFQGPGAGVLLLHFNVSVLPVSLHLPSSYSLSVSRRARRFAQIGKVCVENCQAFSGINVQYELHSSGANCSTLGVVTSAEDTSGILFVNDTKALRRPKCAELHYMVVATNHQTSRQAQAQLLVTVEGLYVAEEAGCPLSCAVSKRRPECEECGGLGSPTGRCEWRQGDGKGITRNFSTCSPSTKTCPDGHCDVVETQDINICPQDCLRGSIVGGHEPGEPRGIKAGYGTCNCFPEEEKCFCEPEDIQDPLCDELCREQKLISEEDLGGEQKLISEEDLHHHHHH
Assay: SPR Biacore T200, mAb capture, 37 C
recorded-endpoint: koff (s⁻¹)
Give your result in s⁻¹ as a bare value.

binder="H4H8058P (antibody, human IgG4, V domains shown, human IgG4 Fc (H4H prefix)) VH: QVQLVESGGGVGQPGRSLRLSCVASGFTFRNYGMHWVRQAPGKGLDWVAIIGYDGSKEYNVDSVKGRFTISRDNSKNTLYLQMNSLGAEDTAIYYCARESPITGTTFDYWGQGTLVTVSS VL: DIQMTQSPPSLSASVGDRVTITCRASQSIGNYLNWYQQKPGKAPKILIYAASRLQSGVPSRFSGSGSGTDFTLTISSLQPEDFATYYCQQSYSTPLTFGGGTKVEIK" recorded_endpoint=koff unit_of_measure=s⁻¹ observed=0.00226
binder="H4H8085P (antibody, human IgG4, V domains shown, human IgG4 Fc (H4H prefix)) VH: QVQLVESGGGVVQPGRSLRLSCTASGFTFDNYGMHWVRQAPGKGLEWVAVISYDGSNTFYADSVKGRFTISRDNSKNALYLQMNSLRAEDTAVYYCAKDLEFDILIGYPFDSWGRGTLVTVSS VL: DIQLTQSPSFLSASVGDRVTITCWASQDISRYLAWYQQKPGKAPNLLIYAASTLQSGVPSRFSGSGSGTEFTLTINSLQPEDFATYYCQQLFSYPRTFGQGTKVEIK" recorded_endpoint=koff unit_of_measure=s⁻¹ observed=0.00126

Next binder, koff to be filled in.
Briefly, koff measured for H4H8083P (antibody, human IgG4, V domains shown, human IgG4 Fc (H4H prefix)) VH: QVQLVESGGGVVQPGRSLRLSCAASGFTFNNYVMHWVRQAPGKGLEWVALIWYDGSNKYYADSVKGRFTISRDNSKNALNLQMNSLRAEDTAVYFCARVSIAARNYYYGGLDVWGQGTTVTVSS VL: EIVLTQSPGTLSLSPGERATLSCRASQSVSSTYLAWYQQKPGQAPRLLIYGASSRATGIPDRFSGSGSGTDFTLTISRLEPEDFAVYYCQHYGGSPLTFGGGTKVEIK : 0.004
